- METHOD: ATG_M_19_TRANS: Attagene TRANS-FACTORIAL HepG2 Assay for M19 Transcription Factor (Internal Marker) (AID 2282974)
- PARTICULARS: HepG2 Attagene TRANS-FACTORIAL M19 internal marker reporter
Inconclusive results are not listed. The source made the active and inactive calls. The calls were made as follows: active = hit-call score of the fitted dose curve at least 0.9, where 1 is the maximum; inconclusive = response in the unintended direction; inactive = score below 0.9.
ASSAY READOUT: outcome

Some entries whose results are on file:
>>> df
                                   compound  measured_result
0              Nc1cc([N+](=O)[O-])cc(Cl)c1O         inactive
1                               COCCC(=O)OC         inactive
2                    CC(C)CC=C(C=O)c1ccccc1         inactive
3                    O=C1C=CC(=O)N1c1ccccc1         inactive
4        CCCCCCCCCCCCCC[P+](CCCC)(CCCC)CCCC         inactive
5  O=C1C=CC(=O)N1c1ccc(Cc2ccc(N3C(=O)C=CC3=O)cc2)cc1         inactive
6                         C[Si](C)O[Si](C)C         inactive
7                             COc1ccccc1C=O         inactive

Now turn to the next compound.
IN: Can you share its outcome? I mean this compound: CN(C)C(C)(C)CO
OUT: inactive

---

- METHOD: CCTE_Padilla_ZF_Score.Living: CCTE's 144 Hour Post-fertilization zebrafish Assay Score for Viability, Padilla Lab (AID 2284410);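 also: larval death at 6 dpf judged by absent heartbeat or coagulation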
The source made the active and inactive calls. The calls were made as follows: active = hit-call score of the fitted dose curve at least 0.9, where 1 is the maximum; inactive = score below 0.9.
ASSAY READOUT: AC50

Some entries whose results are on file:
>>> df
                                   molecule   measured_result
0  O=C(Cl)C(F)(F)C(F)(F)C(F)(F)C(F)(F)C(F)(F)C(F)(F)F          inactive
1  O=S(=O)(O)CCC(F)(F)C(F)(F)C(F)(F)C(F)(F)F          inactive
2  O=C(O)C(F)(F)C(F)(F)C(F)(F)C(F)(F)C(F)(F)C(F)(F)C(F)F          inactive
3  C=CC(=O)OCCC(F)(F)C(F)(F)C(F)(F)C(F)(F)F  20.9 µM (active)
4  O=C(F)C1(F)C(F)(F)C(F)(F)C(F)(F)C(F)(F)C1(F)F          inactive
5  O=S(=O)(OCC(F)(F)F)C(F)(F)C(F)(F)C(F)(F)C(F)(F)F          inactive
6  CNS(=O)(=O)C(F)(F)C(F)(F)C(F)(F)C(F)(F)C(F)(F)C(F)(F)C(F)(F)C(F)(F)F          inactive
7  NCC(F)(F)C(F)(F)C(F)(F)C(F)(F)C(F)(F)C(F)(F)C(F)(F)C(F)(F)F  32.4 µM (active)
8  C=CC(=O)OCC(F)(F)C(F)(F)C(F)(F)COC(=O)C=C    10 µM (active)

Now turn to the next compound.
IN: Can you share its AC50? I mean this compound: OCC(F)(F)C(F)(F)C(F)(F)C(F)(F)C(F)(F)C(F)(F)CO
OUT: inactive

---

- Read-out: Plasminogen activator inhibitor-1 (PAI1), SERPINE1 (gene 5054)
- METHOD: BSK_BE3C_PAI1: BioMAP Diversity Plus: BE3C Assay for Plasminogen activator inhibitor-1 (PAI1) Biomarker Activity (AID 2283037)
- PARTICULARS: primary human bronchial epithelial cells; actives raise or lower the signal
- Experimental: BSK_BE3C is a cell-based, multiplexed-readout assay that uses bronchial epithelial cell, a human lung primary cell, with measurements taken at 24 hours after chemical dosing in a 96-well plate.BSK_BE3C_PAI1 is an assay component measured in the BSK_BE3C assay. It measures PAI-1 antibody related to regulation of gene expression using ELISA technology.Data from the assay component BSK_BE3C_PAI1 was analyzed into 1 assay endpoint. […]
Active and inactive are the calls of the source. Rule for the calls: active = hit-call score of the fitted dose curve at least 0.9, where 1 is the maximum; inactive = score below 0.9.
Select the matching outcome among active, inactive

Completed entries (count: 3):
                                   compound  classification
0  O=C(O)C(F)(F)OC(F)(F)C(F)(F)OC(F)(F)C(F)(F)OC(F)(F)F        inactive
1  OCC(F)(F)C(F)(F)C(F)(F)C(F)(F)C(F)(F)C(F)(F)CO        inactive
2  O=S(=O)(OCC(F)(F)F)C(F)(F)C(F)(F)C(F)(F)C(F)(F)F        inactive

IN: I'd appreciate the recorded outcome for Cc1cc(C)c(O)c(C(C)(C)C)c1 from this test.
OUT: active

IN: # iterate: OCC(O)CC(F)(F)C(F)(F)C(F)(F)C(F)(F)C(F)(F)C(F)(F)C(F)(F)C(F)(F)F (stereo not given)
OUT: inactive

---

- SUBJECT OF TEST: Bile acid receptor (Homo sapiens)
- METHOD: ATG_IR1_CIS: Attagene CIS-FACTORIAL HepG2 Assay for human Nuclear Receptor Subfamily 1 Group H Member 4 (NR1H4), IR1 submotif (AID 2282946)
- PARTICULARS: IR1 reporter transcription, actives raise or lower the signal
Active and inactive are the calls of the source. The calls were made as follows: active = hit-call score of the fitted dose curve at least 0.9, where 1 is the maximum; inactive = score below 0.9.
ASSAY READOUT: AC50

In [3]: df
Out[3]:
                                   molecule   measured_result
0                 OCC(F)(F)C(F)(F)C(F)(F)CO          inactive
1                     O=C(Cl)c1ccc(Cl)cc1Cl          inactive
2  O=S(=O)(O)CCC(F)(F)C(F)(F)C(F)(F)C(F)(F)C(F)(F)C(F)(F)C(F)(F)C(F)(F)F  39.9 µM (active)

---

- Read-out: Actin alpha 1 (ACTA1), ACTA1 (gene 58)
- METHOD: BSK_MyoF_ACTA1: BioMAP Diversity Plus: MyoF Assay for Actin alpha 1 (ACTA1) Biomarker Activity (AID 2284244)
- PARTICULARS: primary human lung fibroblasts
Active and inactive are the calls of the source. The calls were made as follows: active = hit-call score of the fitted dose curve at least 0.9, where 1 is the maximum; inactive = score below 0.9.
Select the matching outcome among active, inactive

Completed entries (count: 3):
>>> df
                                   compound  classification
0                      OC(O)C(F)(F)C(F)(F)F        inactive
1        OCCCCC(F)(F)C(F)(F)C(F)(F)C(F)(F)F        inactive
2  CO[Si](C)(CCC(F)(F)C(F)(F)C(F)(F)C(F)(F)C(F)(F)C(F)(F)F)OC        inactive

IN: I'd appreciate the recorded outcome for NS(=O)(=O)C(F)(F)C(F)(F)C(F)(F)C(F)(F)C(F)(F)C(F)(F)F from this test.
OUT: inactive

IN: # iterate: Cc1cc(O)c(C(C)(C)C)cc1C(C)(C)C
OUT: active

IN: # iterate: O=C(F)C1(F)C(F)(F)C(F)(F)C(F)(F)C(F)(F)C1(F)F
OUT: inactive

---

- METHOD: BSK_CASM3C_SRB: Viability Assessment in the BioMAP Diversity Plus: CASM3C Assay (AID 2283050);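 also: total protein by SRB staining as cytotoxicity measure in parallel cultures; cells exposed to compound for 24 h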
- PARTICULARS: primary human coronary artery smooth muscle cells
Activity calls are given as the source filed them. The calls were made as follows: active = hit-call score of the fitted dose curve at least 0.9, where 1 is the maximum; inactive = score below 0.9.
Select the matching outcome among Y for active, N for inactive

Completed entries (count: 3):
                                   molecule  classification
0  CCN(CC)c1ccc2c(c1)Oc1cc(N(CC)CC)ccc1C21OC(=O)c2ccccc21               N
1  NCC(F)(F)C(F)(F)C(F)(F)C(F)(F)C(F)(F)C(F)(F)C(F)(F)C(F)(F)F               N
2         O=C(O)C(F)(F)C(F)(F)C(F)(F)C(=O)O               N

IN: I'd appreciate the recorded outcome for Brc1nc2ccccc2s1 from this test.
OUT: N

IN: # iterate: C[C@]12CC[C@H]3C(=CCc4cc(O)ccc43)[C@@H]1CCC2=O
OUT: N

IN: # iterate: C=CC(=O)OCC(F)(F)C(F)(F)C(F)(F)C(F)(F)C(F)(F)C(F)(F)C(F)(F)C(F)F
OUT: N

IN: # iterate: O=C=NCc1cccc(CN=C=O)c1
OUT: N

IN: # iterate: CCOC(C=C(C)CCC=C(C)C)OCC
OUT: Y

IN: # iterate: O=C(O)CCC(F)(F)C(F)(F)C(F)(F)F
OUT: N

IN: # iterate: CNS(=O)(=O)C(F)(F)C(F)(F)C(F)(F)C(F)(F)C(F)(F)C(F)(F)C(F)(F)C(F)(F)F
OUT: N

IN: # iterate: OC(O)C(F)(F)C(F)(F)F
OUT: N
